method summary: Drug uptake in Alzheimer's disease patient white matter at 370 kBq/100 uL after 1 hr by thioflavin-S based autoradiography
Assay type: ADME, tissue-based
assay setup: human, in vitro
endpoint label: Drug uptake

[[record]]
compound_structure_string = "Nc1ccc(-c2cnc3cc(OCC[18F])ccc3n2)cc1"
recorded_value = "Active"

[[record]]
compound_structure_string = "CNc1ccc(-c2cnc3ccc(OCC[18F])cc3n2)cc1"
recorded_value = "Active"

[[record]]
compound_structure_string = "Nc1ccc(-c2cnc3ccc(OCC[18F])cc3n2)cc1"
recorded_value = "Active"

[[record]]
compound_structure_string = "CN(C)c1ccc(-c2cnc3cc(OCC[18F])ccc3n2)cc1"
recorded_value = "Not Active"


Shifting focus to the molecule that follows.
Task: Name the recorded Drug uptake for CNc1ccc(-c2cnc3cc(OCC[18F])ccc3n2)cc1 .
Result: Not Active
